Data provenance is patent US20080319017A2.

pEC50 for assorted molecules
- assay system: human LXRalpha (Homo sapiens, UniProt Q13133)
- Construct: human LXRalpha (amino acid 205-447)
- Sequence (Q13133 205-447): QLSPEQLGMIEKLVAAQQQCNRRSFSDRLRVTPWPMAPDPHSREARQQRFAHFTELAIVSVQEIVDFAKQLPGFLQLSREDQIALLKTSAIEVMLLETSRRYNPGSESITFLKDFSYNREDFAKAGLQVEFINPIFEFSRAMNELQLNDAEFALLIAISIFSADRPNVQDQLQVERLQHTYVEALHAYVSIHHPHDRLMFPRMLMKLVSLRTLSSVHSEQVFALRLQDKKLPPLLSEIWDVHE
- assay protocol: Transactivation assay (reporter gene assay), GAL4-LXRalpha LBD luciferase in U2/OS cells
- test conditions: U2/OS osteosarcoma cells, 48 h incubation, read-out: EC50 for LXRα in the reporter gene assay
pEC50: −log10 of the molar value.
property: pEC50

• CC(C)N1C(=S)C(NCCCCc2ccccc2)=C(c2ccccc2)S1(=O)=O = 4.98
• CC(C)N1C(=S)C(NC2CCN(c3ncc(C(F)(F)F)cc3Cl)CC2)=C(c2ccccc2)S1(=O)=O = 5.51
